- Assayed System: UniProtKB P08173
- Assay Overview: mAChR M4 cell-based functional assay: calcium mobilization (Fluo-4, FDSS), potentiation of EC20 acetylcholine response in hM4-Gqi5 CHO-K1 cells
- Protocol Conditions: potentiation of EC20 acetylcholine response, calcium mobilization, human M4
pEC50: −log10 of the molar value.
Property Measured: pEC50

>>> df
                                   compound  property_measured  numeric_value
0  COc1ccc(-c2cnc3c(c2)CN(c2nn4c(=O)cc(C)nc4cc2C)CC3)cc1F [Compound 1-216]              pEC50           6.42
1  COc1cncc(-c2cnc3c(c2)CN(c2nn4c(=O)cc(C(F)F)nc4c(C)c2C)CC3)c1 [Compound 1-167]              pEC50           6.45
2  COc1cncc(-c2cnc3c(c2)CN(c2nn4c(=O)cc(C)nc4cc2C)CC3)c1 [Compound 1-70]              pEC50           6.56
3  Cc1ccc(-c2cnc3c(c2)CN(c2nn4c(=O)cc(C(F)(F)F)nc4c(C)c2C)CC3)cn1 [Compound 1-84]              pEC50           6.83
4  Cc1cncc(-c2cnc3c(c2)CN(c2nn4c(=O)ccnc4c(C)c2C)CC3)c1 [Compound 1-147]              pEC50           6.52
5  Cc1cc2nccc(=O)n2nc1N1CCc2ncc(-c3cccc4ncccc34)cc2C1 [Compound 1-41]              pEC50           6.37

----------
Emax at 30 µM by entry:
- Assayed System: human mAChR M4 (Homo sapiens, UniProt P08173)
- Construct: expressed in transfected cells; host or cells: CHO-K1 (American Type Culture Collection), stably expressing hM4 and Gqi5
- Sequence (P08173 whole entry): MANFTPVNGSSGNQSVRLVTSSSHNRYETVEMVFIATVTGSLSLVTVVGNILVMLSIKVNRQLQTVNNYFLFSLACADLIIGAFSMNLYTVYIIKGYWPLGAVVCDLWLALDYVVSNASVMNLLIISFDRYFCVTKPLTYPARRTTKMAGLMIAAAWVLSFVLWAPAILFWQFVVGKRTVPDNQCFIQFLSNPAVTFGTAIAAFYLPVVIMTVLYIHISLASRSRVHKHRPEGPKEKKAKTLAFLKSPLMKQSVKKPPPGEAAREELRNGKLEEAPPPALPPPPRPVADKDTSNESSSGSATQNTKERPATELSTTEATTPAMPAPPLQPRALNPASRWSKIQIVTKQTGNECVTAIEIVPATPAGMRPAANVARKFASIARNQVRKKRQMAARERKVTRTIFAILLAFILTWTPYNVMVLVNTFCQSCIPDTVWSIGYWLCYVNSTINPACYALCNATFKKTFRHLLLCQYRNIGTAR
- Assay Overview: mAChR M4 cell-based functional assay: calcium mobilization (Fluo-4, FDSS), potentiation of EC20 acetylcholine response in hM4-Gqi5 CHO-K1 cells
- Protocol Conditions: CHO-K1, % ACh maximum at 30 μM; human M4
Property Measured: Emax at 30 µM (%)

>>> df
                         chemical_structure  property_measured  quantity_unit  numeric_value
0  Cc1cc(=O)n2nc(N3CCc4ncc(-c5cc(F)ncc5C)cc4C3)c(C)cc2n1      Emax at 30 µM              %             92
1  Cc1cc(C)c(-c2cnc3c(c2)CN(c2nn4c(=O)ccnc4cc2C)CC3)cn1      Emax at 30 µM              %             61
2  Cc1c(N2CCc3ncc(C4CCOCC4)cc3C2)nn2c(=O)ccnc2c1C      Emax at 30 µM              %             91
3  Cc1cc2nccc(=O)n2nc1N1CCc2ncc(-c3cccc(C#N)c3C)cc2C1      Emax at 30 µM              %             70
4  Cc1c(N2CCc3ncc(P(C)(C)=O)cc3C2)nn2c(=O)ccnc2c1C      Emax at 30 µM              %             77
5  Cc1c(N2CCc3ncc(Oc4ccccc4F)cc3C2)nn2c(=O)ccnc2c1C      Emax at 30 µM              %             96
6  Cc1cc2nccc(=O)n2nc1N1CCc2ncc(-c3ccc4nccn4c3)cc2C1      Emax at 30 µM              %             75
7  Cc1cc2nccc(=O)n2nc1N1CCc2ncc(Nc3cccnc3)cc2C1      Emax at 30 µM              %            106
8  Cc1cc2nccc(=O)n2nc1N1CCc2ncc(-c3ccccn3)cc2C1      Emax at 30 µM              %             69
9  Cc1cc2nccc(=O)n2nc1N1CCc2ncc(-c3cnn(C)c3)cc2C1      Emax at 30 µM              %             83

The values you see were collected from patent US20250101041A1.
